# Tested on: MS2 coat protein
# test_details: apparent KD of MS2 coat protein; higher = weaker reporter binding
# condition_notes: Eterna round: R107; input ligand: theophylline 2 mM
measured_attribute: apparent KD of MS2 coat protein (nM)

item_sequence	measured_attribute	result
GAGGGUGAGCCUCUGGUCCGUUUGACGGAUACCAGCGAGAGGUCUCGCCCUUGGCAGCCGACGACAUGAGGAUCACCCAUGUUAA [#09 Exclusion-TheophyllineA]	apparent KD of MS2 coat protein	19.2
UGUGUUGUCCGAAGGAGCGGGACCUAAUAGUGGUAACAUGAGGAUCACCCAUGUAUUUCGUCCCAGGUAGGUCGCGGACAGUGUA [ArgiB-ms2@36]	apparent KD of MS2 coat protein	25.1
ACAUGAGGAUCACCCAUGUGAAGCAGGGUACGAGGACCGGUACGGCCGCCACUCGAACAUUAUAACGAGUGAAUGGCAACGAUGU [B15Jan]	apparent KD of MS2 coat protein	13.8

* * *

# System: K4 kissing-loop RNA reporter
# test_details: apparent KD of K4 kissing-loop reporter; higher = weaker reporter binding
# condition_notes: Eterna round: R107; input ligand: none
# if value of apparent KD of K4 kissing-loop reporter reaches 200 nM, tag 1 (yes); if it stays below, tag 0 (no)

item_sequence	cat
CGCAGUGAUGUUGCGAGUAGCUACAGGGAAGGAGCGUGCUAGAGCACAGGUAGGUCGCCCAGUGGCAGUGAUGUUGCCAAAGGGU [Exclusion ARginine A GF 17]	0 (no)
AACGUAGCUACUGAUACCAGACUUUUUCUUGUAUAUUAGUCAAGUGAUGUUUGACUUUUAGUCCCUUGGCAGCAGUUGCUACGAA [JR_Nu_SSTheophyB_Sub028]	0 (no)
GUAUGUGAUGGAAACAUCGCAUACACUGAUACCAGUAUCGAUAGAUACCCUUGGCAGCAGAAAACUGCAAUUGGAGUGAUGUUCC [Ex Theophylline A K4 1]	1 (yes)
AUUCGAUCAGUGAUGUUGAUCAAAGUCGAAGGAGCGGACGAAAGUCCAGGUAGGUCGCGACUACAAGGUGUUAAGACACCUCGAA [Spvincent t9 mod #OpenEnded]	1 (yes)
UAUACUAGACAAGAGAGAAUUCUCUCAAGAGAGGAUAUCCGAAUUCGGAGAAGGCUCUCUCAGUGAUGUUGGGAAUAGUCUAGAA [AK6 SS FMN A]	0 (no)
ACCUACGAUCACGAAAGUGAUUGUAGGAUCUAGGAUAUGCUGAAGAGCAGAAGGAGAGUGAUGUUCUCAUCUCACGAAAGUGAGA [whbob_Ex_FMNA__2th190]	1 (yes)

* * *

# System: K4 kissing-loop RNA reporter;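 note: bound reporter read as fluorescence of individual clusters on recovered sequencing chips by microscopy, with normalized cluster intensities fitted with a binding model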
# test_details: apparent KD of K4 kissing-loop reporter; higher = weaker reporter binding
# condition_notes: Eterna round: R107; input ligand: theophylline 20 uM
Examples of sequences with documented apparent KD of K4 kissing-loop reporter follow.

item_sequence	value_units	apparent KD of K4 kissing-loop reporter
UGUCUUCAGUGAUGUUGAUGACAACACUUAAAGGAUAUGCGAGAGAGCAGAAGGUUAAACAACGCGCAAAUCAAGGAGGGUCUAG [theeternabot_exclusion_KL_FMN_A_30]	nM	196
AAUUUAUAUUUGUUCUUCAAAUGUUCAGAAGGAGCGUGAAUUAUCACAGGUAGGUCGCUGGGCUAGUGAUGUUGGCUAUAUACUA [whbob_Ex_Arginine_A_2t126]	nM	211
GUGAAGGAGAUGCAGUGAUGUUGCAGAGACUAGGAUAUCAGGAAACUGAGAAGGAGUCAAUUCCUUCAUUUAGACUGCAACAUAA [KL-SSFMN-A12]	nM	296
AAGUCAUAUAGAAGGAGCGUGUUUUUUAAUUUGUUUUCAUGAUCGAGUGAUGUUCGAUAUACACAGGUAGGUCGCUGUAUGAUAA [hbob_SS_Arginine_B_2t143]	nM	177
UUUAAACAUAGUGAUGUUAUGUAACAAUGACGAGGACCGGUACGGCCGCCACUCGAGAGAGAUGAUGGUAAAAUAAAUAAUUUUC [#10 K4 Tryptophan A Same State]	nM	113
UGUUCAAGUGAUGUUUGAGACUAGGUGGAUACCAGCGCAUGCAGUCGCCCUUGGCAGCCAGAAACCAACGCCGCGCGCUUCGGCU [theeternabot_sameState_KL_Theo_A_39]	nM	350
AGGAAGUGAGAAGGAUAUUACACUCGGAAGCGCUAGUGAUGUUAGCAUAGAAACAAGGGAACAUGGUAAGAAGGUCUUACAAUGA [theeternabot_sameState_KL_FMN_B_2]	nM	69.5
GCGGGCCCGGGAGGAUAUGAGUCGAGUGAUGUUCGGCGGUCCAUGCCGUUGCGGCGUUAAGCCCUUUUAGAAGGCCCGGGCCCGC [#2 Exclusion - FMN B Attempt #2 (HarryS)]	nM	138
CUUCGUAAGGGCCCAGUGAUGUUGGGCACUCGAGGACCGGUACGGCCGCCACUCGCUCCCUAAGUCGCGCGCGUGGGCCACCGCC [Rezariatra]	nM	102
GGCAUAUGAAAUCGCCUAGAGAGAAAGGAUACCAGCACCCGGCGGUGCCCUUGGCAGCCUAGCCCAGUGAUGUUGGGUCCUCUAA [Rasoonanxe]	nM	296
GCCGUAGAUUGAAGGAGCGGGAUAGAGAAAGUGAUGUUUUCUCUUUGACGGCGUCCUCGAUCCCAGGUAGGUCGCAAUCUACGGC	nM	73.5
GGGCCUCUGGCUGAUACCAGUGAUGCAGGGUCCGAGACAGGGAGUGAUGUUCCCUGCAGCCACCCUUGGCAGCAGUUUAAGUUUG [Exclusion Theophylline B GF 19]	nM	124

* * *

# Tested on: MS2 coat protein
# test_details: apparent KD of MS2 coat protein; designed switch direction (-1 OFF switch, 1 ON switch): 1; higher = weaker reporter binding
# condition_notes: input ligand: microRNA oligo, concentration not stated
Binning of apparent KD of MS2 coat protein into classes: low range = under 0.04 µM, mid range = from 0.04 µM up to 0.07 µM, high range = 0.07 µM and over

item_sequence	target_entity	cat
ACAAGCUUUUCUGUAUUGAAAGGUGGGAUACAUGAGGAUCACCCAUGUUUUUUUGUUUAUUUUUUUCCUCGUCUUAU [JR_SHM208A_Sub088] (Eterna round: R96, puzzle: Sensor for hsa-mir-208a)	MS2 coat protein	low range
GUCGGUCUGUCGUGCUGUGGUGAUAGUUAACAUGAGGAUCACCCAUGUUGCUUUCGGGUCGUUGGGAGUUUUUUUCG [Modxample 121 - Jieux - Sensor for bsa-mir-208a] (Eterna round: R96, puzzle: Sensor for hsa-mir-208a)	MS2 coat protein	mid range
CCGUAGAUGGAAGGAUAUGGAGCCUUAUUGGCUCCAGAAGGUUCAAUACAUGAGGAUCACCCAUGUUCGGCGGUCAAUAGACCG [Eli NG1ss - 81] (Eterna round: R96, puzzle: Same State NG 1)	MS2 coat protein	low range
GUGGUCAGACAUGAGGAUCACCCAUGUGGAAUAAAUAACGGACAGGAUAUAAAAUAUAGGAUAUAUUAGAAGGGUUGAUUGGUG (Eterna round: R96, puzzle: Same State NG 3)	MS2 coat protein	low range
AAACGGCCGAACGGAGGACCACAUGAGGAUCACCCAUGUACAUAGGAUAUCAUGCCAACGAGGCAUGAGAAGGGUGAUUAAAAC [Ribigeso] (Eterna round: R96, puzzle: Same State NG 3)	MS2 coat protein	low range
CCAACGUACAAUUUAGAUCUACAUGAGGAUCACCCAUGUACGGAGGAUAUCAGCUCGAAUAGAGCUGAGAAGGCCGAAUUAAUU [SSNG3/2-A1] (Eterna round: R96, puzzle: Same State NG 3)	MS2 coat protein	high range
GCGAGCGUACUUGCUACAUGAGGAUCACCCAUGUCUGUUGGACAGGAUAUGGUACCGUUUCGGUACCAGAAGGGUUCAUCAUGU [JL SSNG3 3.74] (Eterna round: R96, puzzle: Same State NG 3)	MS2 coat protein	high range
GAGCCAGUCCGAGGAUAUUCAUAUUACAUGAGGAUCACCCAUGUAGGCUCAGAAAAGGAGCCUUGGGAGAAGGCGGACUGGCUC [Xeonanisa<<3] (Eterna round: R96, puzzle: Same State NG 2)	MS2 coat protein	high range
AUACAAAACACAAAUACAAACAAAUACAAACAUGAGGAUCACCCAUGUGCAAUACGACUCUUUAUGGCUGGUCUUCA [Onvete] (Eterna round: R96, puzzle: Sensor for hsa-mir-208a)	MS2 coat protein	mid range

* * *

# System: MS2 coat protein
# test_details: apparent KD of MS2 coat protein; designed switch direction (-1 OFF switch, 1 ON switch): -1; higher = weaker reporter binding
# condition_notes: input ligand: FMN 200 uM

item_sequence	target_entity	apparent KD of MS2 coat protein (nM)
ACUAAAUAAACAAGCAAUAAUCCAUCGUCUUAUACUAAAACAUGAGGAUCACCCAUGUAACAGGUGGUGUUAAAUAA [JR_Sensorv2_tov2_Sub1202] (Eterna round: R96, puzzle: Sensor v2, turn-off variant 2)	MS2 coat protein	15.4
UGAUCUAGCGGAGGAUAUACAUGAGGAUCACCCAUGUAGAUAACAUGACCGUAGUCGUGUAUCGUGUAGAAGGCCGCUAGAUCU [JL ENG2 3.67] (Eterna round: R96, puzzle: Exclusion NG 2)	MS2 coat protein	35
AGGUGUAGAGGAUAUCGACUUUCUCACAUGAGGAUCACCCAUGUCCUGGUCACCCAGGACCGAGAAGGCUACACCA [Omei Ex5 D27] (Eterna round: R97, puzzle: Exclusion 5)	MS2 coat protein	204
